Recorded MIC by entry
# Tested on: Bacillus cereus
# EXPERIMENT: Antibacterial activity against Bacillus cereus NCIB 6349 after 72 hrs
# Assay type: functional
# PARTICULARS: NCIB 6349, 72 h
METRIC: MIC (µg/mL)

[[record]]
compound = "C/C(=N\\Nc1nc2ccccc2[nH]c1=O)c1cc2cc(Br)ccc2oc1=O"
unit_of_measure = "µg/mL"
val = 62.5

[[record]]
compound = "C/C(=N\\Nc1nc2ccccc2[nH]c1=O)c1cc2ccccc2oc1=O"
unit_of_measure = "µg/mL"
val = 31.3

[[record]]
compound = "O=c1[nH]c2ccccc2nc1N/N=C1\\CCCCC1Br (centres undefined)"
unit_of_measure = "µg/mL"
val = 7.8

[[record]]
compound = "O=C1Nc2ccc(Br)cc2/C1=N/Nc1nc2ccccc2[nH]c1=O"
unit_of_measure = "µg/mL"
val = 62.5

[[record]]
compound = "Cc1ccc2c(c1)/C(=N/Nc1nc3ccccc3[nH]c1=O)C(=O)N2"
unit_of_measure = "µg/mL"
val = 62.5

[[record]]
compound = "CC1CCCC/C1=N\\Nc1nc2ccccc2[nH]c1=O (centres undefined)"
unit_of_measure = "µg/mL"
val = 15.6

[[record]]
compound = "CC12CCC(C/C1=N\\Nc1nc3ccccc3[nH]c1=O)C2(C)C (centres undefined)"
unit_of_measure = "µg/mL"
val = 62.5

[[record]]
compound = "O=C1Nc2ccc(Cl)cc2/C1=N/Nc1nc2ccccc2[nH]c1=O"
unit_of_measure = "µg/mL"
val = 7.8

[[record]]
compound = "CC/C(C)=N\\Nc1nc2ccccc2[nH]c1=O"
unit_of_measure = "µg/mL"
val = 7.8

[[record]]
compound = "O=c1[nH]c2ccccc2nc1NN=C1CCCCC1"
unit_of_measure = "µg/mL"
val = 15.6

[[record]]
compound = "C/C(=N\\Nc1nc2ccccc2[nH]c1=O)c1cc2cc(Cl)ccc2oc1=O"
unit_of_measure = "µg/mL"
val = 7.8

[[record]]
compound = "CC(C)=NNc1nc2ccccc2[nH]c1=O"
unit_of_measure = "µg/mL"
val = 15.6

[[record]]
compound = "CCC(CC)=NNc1nc2ccccc2[nH]c1=O"
unit_of_measure = "µg/mL"
val = 7.8

[[record]]
compound = "CN[C@@H]1[C@H](O[C@H]2[C@H](O[C@H]3[C@H](O)[C@@H](O)[C@H](N=C(N)N)[C@@H](O)[C@@H]3N=C(N)N)O[C@@H](C)[C@]2(O)C=O)O[C@@H](CO)[C@H](O)[C@H]1O [STREPTOMYCIN]"
unit_of_measure = "µg/mL"
val = 7.8

[[record]]
compound = "O=c1[nH]c2ccccc2nc1NN=C1c2ccccc2Cc2ccccc21"
unit_of_measure = "µg/mL"
val = 7.8

[[record]]
compound = "NNc1nc2ccccc2[nH]c1=O"
unit_of_measure = "µg/mL"
val = 15.6

[[record]]
compound = "O=c1[nH]c2ccccc2nc1NN=C1CCCC1"
unit_of_measure = "µg/mL"
val = 15.6

[[record]]
compound = "O=c1[nH]c2ccccc2nc1N/N=C1\\CCCCC1Cl (centres undefined)"
unit_of_measure = "µg/mL"
val = 31.3

[[record]]
compound = "C/C(=N\\Nc1nc2ccccc2[nH]c1=O)c1cc2cc(C)ccc2oc1=O"
unit_of_measure = "µg/mL"
val = 7.8


Where do the numbers come from? From ChEMBL document CHEMBL1157693.
